B1: mRNA-splicing (parent)
chain: AGUUGCUGCUGGGAGCUCCAGCACAGUGAAAUGGACAGAAGGGCAGAGCAA

Variants of: B1
Experiment: exon inclusion enrichment index; higher = more inclusion; WT1 exon 5 minigene, HEK293
ASSAY_ENDPOINT: exon inclusion enrichment index

1) AGUUGCUGCUGGGAGCUCCAGCACAGUGAAACGGACAGAAGGGCAGAGCAA [U32C]	0.336
2) AGUUGAAGAAGGGAGGGCCAGCACAGUGAAAUGGACAGAAGGGCAGAGCAA [C6A U7A C9A U10A C16G U17G]	0.02
3) AGUUUCUUUUUGGAGCUCCAGCACAGUGAAAUGGACAGAAGGGCAGAGCAA [G5U G8U C9U G11U]	0.144
4) AGUUGCUGCUGGGAGCUCCAGCACAGUCAAAUGGACAGAAGGGCAGAGCAA [G28C]	0.104
5) AGUUUAAUUUGGGAGCUCCAGCACAGUGAAAUGGACAGAAGGGCAGAGCAA [G5U C6A U7A G8U C9U]	0.0678
6) AGUUCUCUUCGGGAGCUCCAGCACAGUGAAAUGGACAGAAGGGCAGAGCAA [G5C C6U U7C G8U C9U U10C]	1.35
7) AGUUAGGGAUGGGAGCUCCAGCACAGUGAAAUGUGCAGAAGGGCAGAGCAA [G5A C6G U7G C9A G34U A35G]	0.00131
8) AGUUGCCACUGGGAGCUCCAGCACAGUGAAAUGGACAGAAGGGCAGAGCAA [U7C G8A]	1.44
9) AGUUGAAGGCGGGAGCUCCAGCACAGUGAAAUGGACAGAAGGGCAGAGCAA [C6A U7A C9G U10C]	1.05
10) AGUAUCUUUUGGGAGCUCCAGCACAGUGAAAUGGACAGAAGGGCAGAGCAA [U4A G5U G8U C9U]	0.252
11) AGUUUCUUUUGGGAGCUCCAGCACAGUGCCAUGGACAGAAGGGCAGAGCAA [G5U G8U C9U A29C A30C]	0.344
12) AGUUUCUUUUGGGAGCUCCAGCACAGUGAAAUGGAUGGAAGGGCAGAGCAA [G5U G8U C9U C36U A37G]	0.114
